- tested_system: Extracellular calcium-sensing receptor (Homo sapiens)
- Sequence (P41180 whole entry): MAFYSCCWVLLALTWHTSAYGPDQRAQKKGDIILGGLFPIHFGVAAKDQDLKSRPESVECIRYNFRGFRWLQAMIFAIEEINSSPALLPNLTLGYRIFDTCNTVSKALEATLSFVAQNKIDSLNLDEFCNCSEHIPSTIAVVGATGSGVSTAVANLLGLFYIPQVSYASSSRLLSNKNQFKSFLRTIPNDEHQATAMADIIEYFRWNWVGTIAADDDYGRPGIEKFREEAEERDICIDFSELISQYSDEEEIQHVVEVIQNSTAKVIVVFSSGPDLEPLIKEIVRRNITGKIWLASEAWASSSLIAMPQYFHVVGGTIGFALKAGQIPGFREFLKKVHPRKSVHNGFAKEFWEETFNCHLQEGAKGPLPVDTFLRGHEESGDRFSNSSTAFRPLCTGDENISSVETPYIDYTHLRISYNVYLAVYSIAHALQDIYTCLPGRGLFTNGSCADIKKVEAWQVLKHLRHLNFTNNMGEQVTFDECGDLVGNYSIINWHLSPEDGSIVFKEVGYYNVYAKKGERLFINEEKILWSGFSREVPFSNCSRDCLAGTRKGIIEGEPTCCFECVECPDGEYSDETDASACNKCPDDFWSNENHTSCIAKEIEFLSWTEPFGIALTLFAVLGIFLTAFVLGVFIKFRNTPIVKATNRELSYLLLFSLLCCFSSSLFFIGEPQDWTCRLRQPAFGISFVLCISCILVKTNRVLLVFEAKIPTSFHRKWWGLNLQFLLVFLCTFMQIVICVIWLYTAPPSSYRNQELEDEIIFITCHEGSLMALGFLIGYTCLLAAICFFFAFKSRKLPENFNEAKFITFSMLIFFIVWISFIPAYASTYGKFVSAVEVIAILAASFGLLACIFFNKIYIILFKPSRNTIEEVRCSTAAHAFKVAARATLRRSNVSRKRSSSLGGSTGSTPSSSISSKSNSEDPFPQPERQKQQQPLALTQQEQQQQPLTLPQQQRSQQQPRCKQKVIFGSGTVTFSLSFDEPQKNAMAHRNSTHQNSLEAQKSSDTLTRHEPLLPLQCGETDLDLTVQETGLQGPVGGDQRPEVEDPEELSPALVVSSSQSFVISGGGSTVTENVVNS
- test_name: Positive allosteric modulation of calcium sensing receptor by cell based assay
Counter-ions that a name gives are not always drawn.
result_type: EC50 (nM)

>>> result("C[C@@H](NCCCc1cccc(C(F)(F)F)c1)c1cccc2ccccc12 [CINACALCET HYDROCHLORIDE]")
20

1: Cc1ccccc1C(C)(O)c1nc2ccccc2s1 (stereo not drawn)
2: Cc1ccc([C@@](C)(O)c2nc3ccccc3s2)c(C)c1
Prompt: Would you let me know which has the greater EC50 value, 1 or 2 ? // caller expects the label of the chosen entry
Completion: 1
(1: 251 nM, 2: 79.4 nM)

###

- tested_system: Extracellular calcium-sensing receptor (Homo sapiens)
- test_name: Positive allosteric modulation of calcium sensing receptor by cell based assay relative to control
- Type: functional
Where a name gives a salt, the structure may show the parent alone.
result_type: Efficacy (%)

>>> result("Cc1ccc(C(C)c2nc3ccccc3s2)c(C)c1 (stereo not given)")
88
>>> result("Cc1ccc(C(O)(c2nc3ccccc3s2)C2CC2)c(C)c1 (stereo not given)")
76
>>> result("Cc1cc(C(C)(O)c2nc3ccccc3s2)ccc1F (stereo not given)")
62
>>> result("CC(O)(c1ccc(Cl)cc1)c1nc2ccccc2s1 (stereo not given)")
68
>>> result("Cc1cc(C)c2c(c1)C(O)(c1nc3ccccc3s1)CCC2 (stereo not given)")
81
>>> result("CC(O)(c1nc2ccccc2s1)c1ccc(Cl)cc1Cl (stereo not given)")
82
>>> result("Cc1ccc([C@@](C)(O)c2nc3ccccc3s2)c(C)c1")
79
>>> result("CC(O)(c1ccc2ccccc2c1)c1nc2ccccc2s1 (stereo not given)")
53
>>> result("Cc1ccc([C@](C)(O)c2nc3ccccc3s2)c(C)c1")
83
>>> result("Cc1cc(Cl)ccc1C(C)(O)c1nc2ccccc2s1 (stereo not given)")
94

I: Cc1ccccc1C(C)(O)c1nc2ccccc2s1 (stereo not given)
II: C[C@@H](NCCCc1cccc(C(F)(F)F)c1)c1cccc2ccccc12 [CINACALCET HYDROCHLORIDE]
III: COc1ccccc1C(C)(O)c1nc2ccccc2s1 (stereo not given)
Prompt: Write the entries in order, lowest recorded Efficacy first. # format: label list in the order the request specifies
Completion: III, I, II
(III: 26%, I: 72%, II: 115%)

1: CC(O)(c1ccc(Cl)c(Cl)c1)c1nc2ccccc2s1 (stereo not given)
2: Cc1ccc(C(C)(O)c2nc3ccccc3s2)c(C)c1 (stereo not given)
Prompt: Of 1 and 2 , whose reported Efficacy is numerically smaller? Pick one and reply with its label.
Completion: 1
(1: 62%, 2: 91%)

###

- test_name: Intrinsic clearance in human liver microsomes
- Format: ADME, Microsome
result_type: microsomal CLint (µL/min/mg)

1: CC(O)(c1nc2ccccc2s1)c1ccc(Cl)cc1Cl (stereo not drawn)
2: Cc1ccc(C(C)(O)c2nc3ccccc3s2)c(C)c1 (stereo not drawn)
Prompt: Select the item with the higher value of microsomal CLint from the options 1 and 2 listed. Kindly state the label of the option you pick.
Completion: 2
(2: 396 µL/min/mg, 1: 66 µL/min/mg)

Values from ChEMBL document CHEMBL1255510
